Data provenance is patent US20110098180A1.

Listing: IC50 of selected molecules
System under test: hydrilla PDS position 304 Arginine, His-tagged (Hydrilla verticillata, UniProt Q66PY0)
Sequence (Q66PY0 77-580): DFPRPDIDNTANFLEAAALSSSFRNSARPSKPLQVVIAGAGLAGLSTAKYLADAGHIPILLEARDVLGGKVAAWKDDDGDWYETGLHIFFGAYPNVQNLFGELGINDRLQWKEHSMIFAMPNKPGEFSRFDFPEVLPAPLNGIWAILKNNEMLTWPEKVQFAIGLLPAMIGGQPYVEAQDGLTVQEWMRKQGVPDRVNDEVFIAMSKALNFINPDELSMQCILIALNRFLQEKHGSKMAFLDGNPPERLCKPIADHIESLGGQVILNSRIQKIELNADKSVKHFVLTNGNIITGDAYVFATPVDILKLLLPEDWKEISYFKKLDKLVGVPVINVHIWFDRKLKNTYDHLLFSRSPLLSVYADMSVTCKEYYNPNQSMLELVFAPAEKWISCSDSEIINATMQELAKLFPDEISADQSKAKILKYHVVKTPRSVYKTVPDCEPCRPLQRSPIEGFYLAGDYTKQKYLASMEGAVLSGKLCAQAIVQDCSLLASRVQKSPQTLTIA
Experiment description: Cross-resistance testing, His-tagged column-purified PDS (Table 2A)
Condition: Arginine at 304; His-tagged, column-purified PDS; read-out: I50
From the text: The alternative approach utilized His-tagging and column purification of the mutant PDS protins. In order to express pds in bacteria, deletion clones were made for each of the three potential start codons with and without ATG. […] All pRSET derived constructs were transformed into BL21(DE3)pLysS cells (Invitrogen), induced with IPTG for protein expression, and the His tag overproduced proteins analyzed by Western blot using Anti-HisG antibody (Invitrogen, cat. #R940-25). […]
Please reply with the bare figure in µM and do not write the unit itself.

CNc1cnn(-c2cccc(C(F)(F)F)c2)c(=O)c1Cl; 50
O=C(Nc1ccc(F)cc1F)c1cccnc1Oc1cccc(C(F)(F)F)c1; 101
CCC(Oc1ccc(F)c(C(F)(F)F)c1)C(=O)NCc1ccccc1 (stereo not drawn); 72

Short answer for O=C1C(Cl)C(CCl)CN1c1cccc(C(F)(F)F)c1 (stereo not drawn) : IC50 was 130

Measured IC50, O=C(Nc1ccc(F)cc1)c1cccc(Oc2cccc(C(F)(F)F)c2)n1 : 327

Value of IC50 reported for the molecule CNC1=C(c2cccc(C(F)(F)F)c2)C(=O)C(c2ccccc2)O1 (stereo not drawn) is 300
